The measurements presented in this section are drawn from the RNAGym collection of RNA variant scans (doi:10.1021/acssynbio.7b00057).

So I've got a bunch of variants here, and I need their aptazyme ON/OFF ratio values.
B1: Pistol ribozyme (parent)
chain: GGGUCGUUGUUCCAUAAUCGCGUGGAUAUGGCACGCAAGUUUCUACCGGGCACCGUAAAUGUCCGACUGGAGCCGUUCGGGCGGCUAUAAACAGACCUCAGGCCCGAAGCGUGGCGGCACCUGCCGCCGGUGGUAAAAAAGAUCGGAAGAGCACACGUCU

- Variants of: B1
- MEASUREMENT_PROTOCOL: aptazyme ON/OFF ratio, guanine; higher = stronger switching; co-transcriptional cleavage with and without guanine
Lab note: record the figure alone, no unit after it.

In plain terms, U8G G9U U10G U11G C12U has a documented aptazyme ON/OFF ratio of 1.2

In plain terms, U7G U8A U10A U11G C12G C13G has a documented aptazyme ON/OFF ratio of 1.11

In plain terms, U7A G9U U10C U11G C13G has a documented aptazyme ON/OFF ratio of 1.09

In plain terms, U7A U8G U10A U11C C12G C13U has a documented aptazyme ON/OFF ratio of 1.21

In plain terms, G9U U10C U11G C13A has a documented aptazyme ON/OFF ratio of 1.36

In plain terms, U7A U8G G9C U10G C13A has a documented aptazyme ON/OFF ratio of 1.52

In plain terms, U7G G9A U10C U11C C12G C13A has a documented aptazyme ON/OFF ratio of 1.1

In plain terms, U7G U8C G9A U11A C12G C13U has a documented aptazyme ON/OFF ratio of 1.1

In plain terms, U7G G9C U10G U11C C13U has a documented aptazyme ON/OFF ratio of 1.15

In plain terms, U7C U8C G9A U10G U11A C12U C13G has a documented aptazyme ON/OFF ratio of 1.19

In plain terms, U7G U8G G9C U10C U11C C12A C13G has a documented aptazyme ON/OFF ratio of 1.14
